Hi there, I'd appreciate the recorded kon for every entry that follows.
- targetDesc: T1, human serum albumin (human, UniProt P02768 25-609)
- T1 construct: also called HSA
- test: SPR (Bruker Sierra SPR-32), HSA on chip, DARPin as analyte, 1:1 Langmuir fit
The reply should contain only the number, in M⁻¹ s⁻¹.

Lab note: measured kon of MAM283 (two domain ankyrin repeat protein, N-terminal His6-TEV tag) (designed binder, also called 2D DARPin) MRGSHHHHHHENLYFQDLGKKLLEAARAGQDDEVRELLKAGADVNAKDYFSHTPLHLAARNGHLKIVEVLLKAGADVNAKDFAGKTPLHLAADAGHLEIVEVLLKAGADVNAQDIFGKTPADIAADAGHEDIAEVLQKAAGSPTPTPTTPTPTPTTPTPTPTGSDLGKKLLAAAADGQDDEVRELLQAGADVNAKDLFGYTPLHLAAWRGHLEIVEVLLEAGADVNAKDAAGETPLHLAAWFGHLEIVEVLLEAGADVNAQDVQGKTPADLAAKEGHEDIAEVLQQAA was 89500

Lab note: measured kon of MAM160 (two domain ankyrin repeat protein, N-terminal His6-TEV tag) (designed binder, also called 2D DARPin) MRGSHHHHHHENLYFQDLGKKLLEAARAGQDDEVRELLKAGADVNAKDYFSHTPLHLAARNGHLKIVEVLLKAGADVNAKDFAGKTPLHLAADAGHLEIVEVLLKAGADVNAQDIFGKTPADIAADAGHEDIAEVLQKAAGSPTPTPTTPTPTPTTPTPTPTGSDLGTKLLSAAADGQDDEVRELLQAGADVNAKDLFGYTPLHLAAWRGHLEIVEVLLEAGADVNAKDAAGLTPLHLAAWFGHLEIVEVLLEAGADVNAQDVQGVTPADLAAKEGHEDIAEVLQQAA was 110000

Lab note: measured kon of MAM279 (two domain ankyrin repeat protein, N-terminal His6-TEV tag) (designed binder, Cleavage of the tag is not reported; also called 2D DARPin) MRGSHHHHHHENLYFQDLGKKLLEAARAGQDDEVRELLKAGADVNAKDYFSHTPLHLAARNGHLKIVEVLLKAGADVNAKDFAGKTPLHLAADAGHLEIVEVLLKAGADVNAQDIFGKTPADIAADAGHEDIAEVLQKAAGSPTPTPTTPTPTPTTPTPTPTGSDLGKKLLAAAAQGQDDEVRELLKAGANVNAKDLFGYTPLHLAAWRGHLEIVEVLLKAGADVNAKDAAGETPLHLAAWFGHLEIVEVLLKAGADVNAQDLQGKTPADLAAKEGHEDIAEVLQKAA was 123000

Lab note: measured kon of MAM282 (two domain ankyrin repeat protein, N-terminal His6-TEV tag) (designed binder, also called 2D DARPin) MRGSHHHHHHENLYFQDLGKKLLEAARAGQDDEVRELLKAGADVNAKDYFSHTPLHLAARNGHLKIVEVLLKAGADVNAKDFAGKTPLHLAADAGHLEIVEVLLKAGADVNAQDIFGKTPADIAADAGHEDIAEVLQKAAGSPTPTPTTPTPTPTTPTPTPTGSDLGKKLLAAAREGQDDEVRELLKAGADVNAKDIWGQTPLHIAAWFGHLEIVEVLLKAGADVNAKDQTGHTPLHLAAKFGHLEIVEVLLKAGADVNAQDLLGRTPADLAAEEGHEDIAEVLQKAA was 120000
